All values here come from patent US6274715A.

# Test system: ESCHERICHIA COLI H560
# ASSAY_OVERVIEW: In vitro antibacterial activity, MIC, BHI agar dilution
# Format: cell-based
# APPLIED_CONDITIONS: E. coli H560, unit assumed
QUANTITY_NAME: MIC

Before answering, review these 3 worked examples.
[[record]]
compound = "CCC1OC(=O)C(C)C(=O)C(C)C(OC2OC(C)CC(N(C)C)C2O)C(C)(OC)CC(C)C2=NC(COCc3ccc(N(C)C)cc3)CN3C(=O)OC1(C)C3C2C (stereo not shown)"
target_entity = "ESCHERICHIA COLI H560"
quantity_name = "MIC"
value_measured = "50 µg/mL"

[[record]]
compound = "CC[C@H]1OC(=O)[C@H](C)C(=O)[C@H](C)[C@@H](O[C@@H]2O[C@H](C)C[C@H](N(C)C)[C@H]2O)[C@](C)(OC)C[C@@H](C)C2=NC3CN(CC)CC3N3C(=O)O[C@@]1(C)[C@H]3[C@H]2C (stereo partly shown)"
target_entity = "ESCHERICHIA COLI H560"
quantity_name = "MIC"
value_measured = "12.5 µg/mL"

[[record]]
compound = "CC[C@H]1OC(=O)[C@H](C)C(=O)[C@H](C)[C@@H](O[C@@H]2O[C@H](C)C[C@H](N(C)C)[C@H]2O)[C@](C)(OC)C[C@@H](C)C2=NC3CN(CCOc4ccccc4)CC3N3C(=O)O[C@@]1(C)[C@H]3[C@H]2C (stereo partly shown)"
target_entity = "ESCHERICHIA COLI H560"
quantity_name = "MIC"
value_measured = "> 100 µg/mL"


Please examine the following record next.
# compound C#CCN1CC2N=C3[C@H](C)C[C@@](C)(OC)[C@H](O[C@@H]4O[C@H](C)C[C@H](N(C)C)[C@H]4O)[C@@H](C)C(=O)[C@@H](C)C(=O)O[C@H](CC)[C@@]4(C)OC(=O)N(C2C1)[C@@H]4[C@H]3C (stereo partly shown) ; its MIC = 50 µg/mL
